# Test system: HCT-15 colon
# PROTOCOL: NCI tumour cell line growth inhibition, 48 h
MEASURED_PROPERTY: TGI

- MOLECULE: "COC(=O)/C(=N/NC(C)(C)C)C(C(=O)OC)C(=O)C(=O)Nc1nc2ccc([N+](=O)[O-])cc2s1 (centres undefined)"
  REPORTED_VALUE: "> 100 µM"
- MOLECULE: "O=C(N/N=C/c1ccc(Cl)cc1)c1ccccc1Nc1ccccc1C(=O)N/N=C/c1ccc(Cl)cc1"
  REPORTED_VALUE: "> 100 µM"
- MOLECULE: "Cc1cc(N)cc(C)c1-c1c(Br)cc(N)cc1Br"
  REPORTED_VALUE: "> 100 µM"
- MOLECULE: "O=C(O)COc1ccc(C(=O)/C(SS/C(C(=O)c2ccc(OCC(=O)O)c(Cl)c2Cl)=C2\\C=C(c3ccccc3Cl)SS2)=C2/C=C(c3ccccc3Cl)SS2)c(Cl)c1Cl"
  REPORTED_VALUE: "> 54.6 µM"
- MOLECULE: "COC1=CC2CCN3Cc4cc5c(cc4C(C1O)C23)OCC5 (centres undefined)"
  REPORTED_VALUE: "8.49 µM"
- MOLECULE: "COc1ccc2c(c1)/C(=C\\c1c(Cl)n(-c3ccccc3)c3ccccc13)C(=O)N2"
  REPORTED_VALUE: "25.3 µM"
- MOLECULE: "C[n+]1c2ccccc2c(CNC(CS)C(=O)O)c2ccccc21 (centres undefined)"
  REPORTED_VALUE: "55.1 µM"
- MOLECULE: "Cc1c2cc[n+](C)cc2c(C)c2c1oc1ccccc12"
  REPORTED_VALUE: "> 100 µM"
- MOLECULE: "CNN1C(=O)c2c(C)c(C)c(C#N)c(N)c2C1=O"
  REPORTED_VALUE: "> 100 µM"
